Assay System: T1, recombinant extracellular domain of hASIC1a (hASIC1a-ECD) (human, UniProt P78348 67-427, limits assumed)
T1 construct: extracellular domain; ASIC1a is one splice isoform of it; also called trimeric ectodomain of hASIC1a
T1 sequence (looked up): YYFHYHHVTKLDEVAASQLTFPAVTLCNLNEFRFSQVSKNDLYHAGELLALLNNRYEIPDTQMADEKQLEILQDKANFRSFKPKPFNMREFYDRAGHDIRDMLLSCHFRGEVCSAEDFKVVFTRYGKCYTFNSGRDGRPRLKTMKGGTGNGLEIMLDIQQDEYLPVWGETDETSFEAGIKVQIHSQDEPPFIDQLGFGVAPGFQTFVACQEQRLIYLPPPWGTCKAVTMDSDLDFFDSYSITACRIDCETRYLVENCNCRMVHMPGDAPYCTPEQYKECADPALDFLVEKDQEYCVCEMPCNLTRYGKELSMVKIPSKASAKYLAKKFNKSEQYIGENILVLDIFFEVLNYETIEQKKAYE
Assay Summary: SPR, Biacore T200, hASIC1a-ECD immobilized, IgG1 as analyte
Outcome Measure: Kd (nM)
Report only the number, with the unit nM understood.

Quick one: Kd of ASC06-01-IgG1 (antibody, V domains shown, Full length IgG1) VH: QVQLQQSGGGLVQPGGSLRLSCAASGFTFSSYAMSWVRQAPGKGLEWVSAISGSGGSTYYADSVKGRFTISRDNSKNTLYLQMNSLRAEDTAVYYCAKDSYFGYSKGDWGQGTLVTVSS VL: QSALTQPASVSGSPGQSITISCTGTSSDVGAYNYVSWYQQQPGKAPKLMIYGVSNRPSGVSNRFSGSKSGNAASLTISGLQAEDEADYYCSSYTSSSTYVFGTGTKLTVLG ? 0.1

Again, but for ASC06-03-IgG1 (antibody, V domains shown, Full length IgG1) VH: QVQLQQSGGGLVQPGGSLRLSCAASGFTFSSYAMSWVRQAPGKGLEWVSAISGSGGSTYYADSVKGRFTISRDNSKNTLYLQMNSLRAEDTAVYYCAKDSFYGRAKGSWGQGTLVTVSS VL: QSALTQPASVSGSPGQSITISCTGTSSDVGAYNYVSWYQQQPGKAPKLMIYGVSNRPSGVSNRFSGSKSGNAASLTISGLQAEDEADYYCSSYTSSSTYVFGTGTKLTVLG 0.12

Again, but for ASC06-02-IgG1 (antibody, V domains shown, Full length IgG1) VH: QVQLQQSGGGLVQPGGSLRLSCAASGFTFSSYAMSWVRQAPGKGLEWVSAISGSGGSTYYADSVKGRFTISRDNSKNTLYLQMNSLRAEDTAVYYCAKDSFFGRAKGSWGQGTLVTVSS VL: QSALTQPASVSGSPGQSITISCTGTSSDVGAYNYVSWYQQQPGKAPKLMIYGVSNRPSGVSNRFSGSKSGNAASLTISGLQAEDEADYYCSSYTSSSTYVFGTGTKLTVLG 0.0125

Again, but for ASC06-04-IgG1 (antibody, V domains shown, Full length IgG1) VH: QVQLQQSGGGLVQPGGSLRLSCAASGFTFSSYAMSWVRQAPGKGLEWVSAISGSGGSTYYADSVKGRFTISRDNSKNTLYLQMNSLRAEDTAVYYCAKDSFYGRAKGVWGQGTLVTVSS VL: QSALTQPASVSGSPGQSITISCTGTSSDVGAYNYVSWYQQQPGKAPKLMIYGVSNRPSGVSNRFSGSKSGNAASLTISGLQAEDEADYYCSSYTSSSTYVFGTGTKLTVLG 0.26

Again, but for ASC06-IgG1 (antibody, V domains shown, Tested as full length IgG1; also called WT antibody ASC06-IgG1; parental ASC06-IgG1 antibody) VH: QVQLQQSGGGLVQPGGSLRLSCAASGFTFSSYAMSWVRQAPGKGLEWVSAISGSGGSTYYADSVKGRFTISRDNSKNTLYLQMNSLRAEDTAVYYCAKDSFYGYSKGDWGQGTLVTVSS VL: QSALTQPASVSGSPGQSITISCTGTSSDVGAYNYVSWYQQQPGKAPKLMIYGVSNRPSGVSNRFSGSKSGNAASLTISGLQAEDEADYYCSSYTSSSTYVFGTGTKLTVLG 0.28
